cytotoxicity at 24 h, 50 μg/mL overview
run-description: LDH cytotoxic activity assay, A549
Assay type: cell-based
applied-conditions: human, A549 cells, A549, 50 μg/mL
Your answer is read as %, so omit the unit and give the number.

Cc1cccc(-c2cc(-c3ccncc3)nc(N[C@@H]3O[C@H](CO)[C@@H](O)[C@H](O)[C@H]3O)n2)c1 : 32
Cc1ccc(-c2cc(-c3cccnc3)nc(N[C@@H]3O[C@H](CO)[C@@H](O)[C@H](O)[C@H]3O)n2)cc1 : 26
Cc1cccc(-c2cc(-c3ccccn3)nc(N[C@@H]3O[C@H](CO)[C@@H](O)[C@H](O)[C@H]3O)n2)c1 : 33.2

Input: Param item = Cc1ccc(-c2cc(-c3ccncc3)nc(N[C@@H]3O[C@H](CO)[C@@H](O)[C@H](O)[C@H]3O)n2)cc1 ; retrieve measured cytotoxicity at 24 h, 50 μg/mL.
Output: 28.5

Input: Recorded cytotoxicity at 24 h, 50 μg/mL of Cc1cccc(-c2cc(-c3cccnc3)nc(N[C@@H]3O[C@H](CO)[C@@H](O)[C@H](O)[C@H]3O)n2)c1 , please.
Output: 31.3

Input: Which cytotoxicity at 24 h, 50 μg/mL value belongs to Cc1ccc(-c2cc(-c3ccccn3)nc(N[C@@H]3O[C@H](CO)[C@@H](O)[C@H](O)[C@H]3O)n2)cc1 ?
Output: 24.4

----------
Tested on: Hep3B
In this section we review reported GI50 values for a set of compounds.
Kindly provide the numeric value in µg/mL only, without the unit symbol.

Example cases with answers are listed next.
Cc1cccc(-c2cc(-c3cccnc3)nc(N[C@@H]3O[C@H](CO)[C@@H](O)[C@H](O)[C@H]3O)n2)c1 : 3.61
CC(=O)OC[C@H]1O[C@@H](Nc2nc(-c3cccnc3)cc(-c3ccccc3C)n2)[C@H](OC(C)=O)[C@@H](OC(C)=O)[C@@H]1OC(C)=O : 4.25
Cc1ccc(-c2cc(-c3ccccn3)nc(N[C@@H]3O[C@H](CO)[C@@H](O)[C@H](O)[C@H]3O)n2)cc1 : 4.26

Input: I'm curious: which GI50 was measured for CC(=O)OC[C@H]1O[C@@H](Nc2nc(-c3ccncc3)cc(-c3ccc(C)cc3)n2)[C@H](OC(C)=O)[C@@H](OC(C)=O)[C@@H]1OC(C)=O tested on Hep3B?
Output: 6.15

Input: Could you share what GI50 was measured for CC(=O)OC[C@H]1O[C@@H](Nc2nc(-c3cccnc3)cc(-c3cccc(C)c3)n2)[C@H](OC(C)=O)[C@@H](OC(C)=O)[C@@H]1OC(C)=O , tested on Hep3B?
Output: 4.9

----------
run-description: LDH cytotoxic activity assay, FL
Type: cell-based
applied-conditions: human, FL cells (normal cells), FL, 25 μg/mL
Entry flag: yes if cytotoxicity at 24 h, 25 μg/mL reaches 20%; no if it does not.

Cc1ccc(-c2cc(-c3cccnc3)nc(N[C@@H]3O[C@H](CO)[C@@H](O)[C@H](O)[C@H]3O)n2)cc1 : yes
Cc1cccc(-c2cc(-c3cccnc3)nc(N[C@@H]3O[C@H](CO)[C@@H](O)[C@H](O)[C@H]3O)n2)c1 : no

Input: Does Cc1cccc(-c2cc(-c3ccccn3)nc(N[C@@H]3O[C@H](CO)[C@@H](O)[C@H](O)[C@H]3O)n2)c1 have a reported cytotoxicity at 24 h, 25 μg/mL of at least 20%?
Output: yes

Input: Quick check, cytotoxicity at 24 h, 25 μg/mL >= 20%? Cc1cccc(-c2cc(-c3ccncc3)nc(N[C@@H]3O[C@H](CO)[C@@H](O)[C@H](O)[C@H]3O)n2)c1
Output: no

Input: Tell me whether cytotoxicity at 24 h, 25 μg/mL is at least 20% here: Cc1ccc(-c2cc(-c3ccccn3)nc(N[C@@H]3O[C@H](CO)[C@@H](O)[C@H](O)[C@H]3O)n2)cc1
Output: no

Input: Kindly determine if cytotoxicity at 24 h, 25 μg/mL recorded for Cc1ccc(-c2cc(-c3ccncc3)nc(N[C@@H]3O[C@H](CO)[C@@H](O)[C@H](O)[C@H]3O)n2)cc1 is above or exactly 20%.
Output: no

Input: Entry O=c1[nH]cc(F)c(=O)[nH]1 [Compound 5FU, 5-fluorouracil, reference compound] : is its cytotoxicity at 24 h, 25 μg/mL no less than 20%?
Output: no

----------
run-description: LDH cytotoxic activity assay, C6
Format: cell-based
applied-conditions: rat, C6 glioma cells, C6, 100 μg/mL
Think of 90% as a floor: if cytotoxicity at 24 h, 100 μg/mL stands on it or above, it is fulfilled; beneath it, not fulfilled.

A selection of reference data follows.
Cc1cccc(-c2cc(-c3ccncc3)nc(N[C@@H]3O[C@H](CO)[C@@H](O)[C@H](O)[C@H]3O)n2)c1 : not fulfilled
CC(=O)OC[C@H]1O[C@@H](Nc2nc(-c3cccc(C)c3)cc(-c3ccccn3)n2)[C@H](OC(C)=O)[C@@H](OC(C)=O)[C@@H]1OC(C)=O : fulfilled
CC(=O)OC[C@H]1O[C@@H](Nc2nc(-c3ccncc3)cc(-c3ccc(C)cc3)n2)[C@H](OC(C)=O)[C@@H](OC(C)=O)[C@@H]1OC(C)=O : not fulfilled

Input: Is reported cytotoxicity at 24 h, 100 μg/mL greater than or equal to 90% here: CC(=O)OC[C@H]1O[C@@H](Nc2nc(-c3ccccn3)cc(-c3ccccc3C)n2)[C@H](OC(C)=O)[C@@H](OC(C)=O)[C@@H]1OC(C)=O
Output: fulfilled

----------
Reported cytotoxicity at 24 h, 50 μg/mL by item:
run-description: LDH cytotoxic activity assay, HeLa
Format: cell-based
applied-conditions: human, HeLa cells, 50 μg/mL
Unit % implied. Number only.

The following compounds have reported results that may help.
Cc1ccc(-c2cc(-c3cccnc3)nc(N[C@@H]3O[C@H](CO)[C@@H](O)[C@H](O)[C@H]3O)n2)cc1 : 35
Cc1cccc(-c2cc(-c3ccncc3)nc(N[C@@H]3O[C@H](CO)[C@@H](O)[C@H](O)[C@H]3O)n2)c1 : 29.2
CC(=O)OC[C@H]1O[C@@H](Nc2nc(-c3cccnc3)cc(-c3cccc(C)c3)n2)[C@H](OC(C)=O)[C@@H](OC(C)=O)[C@@H]1OC(C)=O : 28.8

Input: Field request: cytotoxicity at 24 h, 50 μg/mL | item: Cc1ccccc1-c1cc(-c2ccncc2)nc(N[C@@H]2O[C@H](CO)[C@@H](O)[C@H](O)[C@H]2O)n1
Output: 33.4

Input: Which cytotoxicity at 24 h, 50 μg/mL value is on record for Cc1cccc(-c2cc(-c3ccccn3)nc(N[C@@H]3O[C@H](CO)[C@@H](O)[C@H](O)[C@H]3O)n2)c1 ?
Output: 64.3

Input: I'd like to know its cytotoxicity at 24 h, 50 μg/mL. The compound in question is CC(=O)OC[C@H]1O[C@@H](Nc2nc(-c3ccc(C)cc3)cc(-c3ccccn3)n2)[C@H](OC(C)=O)[C@@H](OC(C)=O)[C@@H]1OC(C)=O
Output: 62.6

----------
run-description: LDH cytotoxic activity assay, HT29
Type: cell-based
applied-conditions: human, HT29 cells, HT29, 50 μg/mL
measurement-kind: cytotoxicity at 24 h, 50 μg/mL (%)
Reply numerically in %, unit not repeated.

Completed entries (count: 5):
Cc1ccc(-c2cc(-c3ccccn3)nc(N[C@@H]3O[C@H](CO)[C@@H](O)[C@H](O)[C@H]3O)n2)cc1 [Compound 7] : 40.7
Cc1cccc(-c2cc(-c3ccccn3)nc(N[C@@H]3O[C@H](CO)[C@@H](O)[C@H](O)[C@H]3O)n2)c1 [Compound 4] : 35.7
CC(=O)OC[C@H]1O[C@@H](Nc2nc(-c3ccc(C)cc3)cc(-c3cccnc3)n2)[C@H](OC(C)=O)[C@@H](OC(C)=O)[C@@H]1OC(C)=O [Compound 17] : 35.8
CC(=O)OC[C@H]1O[C@@H](Nc2nc(-c3ccncc3)cc(-c3ccc(C)cc3)n2)[C@H](OC(C)=O)[C@@H](OC(C)=O)[C@@H]1OC(C)=O [Compound 18] : 45.5
Cc1ccc(-c2cc(-c3cccnc3)nc(N[C@@H]3O[C@H](CO)[C@@H](O)[C@H](O)[C@H]3O)n2)cc1 [Compound 8] : 34.5

Input: Query: cytotoxicity at 24 h, 50 μg/mL; subject: Cc1cccc(-c2cc(-c3cccnc3)nc(N[C@@H]3O[C@H](CO)[C@@H](O)[C@H](O)[C@H]3O)n2)c1 [Compound 5]
Output: 39.4

Input: Would you kindly share the measured cytotoxicity at 24 h, 50 μg/mL for CC(=O)OC[C@H]1O[C@@H](Nc2nc(-c3cccc(C)c3)cc(-c3ccccn3)n2)[C@H](OC(C)=O)[C@@H](OC(C)=O)[C@@H]1OC(C)=O [Compound 13] ?
Output: 45.5

Input: What value of cytotoxicity at 24 h, 50 μg/mL has been recorded for this entry: Cc1ccccc1-c1cc(-c2cccnc2)nc(N[C@@H]2O[C@H](CO)[C@@H](O)[C@H](O)[C@H]2O)n1 [Compound 2]
Output: 44.8

Input: What cytotoxicity at 24 h, 50 μg/mL value was documented for this compound, CC(=O)OC[C@H]1O[C@@H](Nc2nc(-c3cccnc3)cc(-c3cccc(C)c3)n2)[C@H](OC(C)=O)[C@@H](OC(C)=O)[C@@H]1OC(C)=O [Compound 14] ?
Output: 44.6

Input: Could you share which cytotoxicity at 24 h, 50 μg/mL value was measured for CC(=O)OC[C@H]1O[C@@H](Nc2nc(-c3ccncc3)cc(-c3ccccc3C)n2)[C@H](OC(C)=O)[C@@H](OC(C)=O)[C@@H]1OC(C)=O [Compound 12] ?
Output: 41.9

Input: Any idea what cytotoxicity at 24 h, 50 μg/mL was measured for CC(=O)OC[C@H]1O[C@@H](Nc2nc(-c3ccccn3)cc(-c3ccccc3C)n2)[C@H](OC(C)=O)[C@@H](OC(C)=O)[C@@H]1OC(C)=O [Compound 10] ?
Output: 51.8

Input: Bench note: what cytotoxicity at 24 h, 50 μg/mL did Cc1cccc(-c2cc(-c3ccncc3)nc(N[C@@H]3O[C@H](CO)[C@@H](O)[C@H](O)[C@H]3O)n2)c1 [Compound 6] show?
Output: 34.5
